I'd be grateful if you could share measured combination Emax for these entries.
Test system: MOLT-4 (T-Lymphoblastic Leukemia)
protocolDescription: combination Emax (second highest fraction inhibited in the dose matrix, 72 h); higher = more inhibition; extreme values may be limits of the assay
One number for each entry.

compound	recordedNumber
CC1(C)CCC(CN2CCN(c3ccc(C(=O)NS(=O)(=O)c4ccc(NCC5CCOCC5)c([N+](=O)[O-])c4)c(Oc4cnc5[nH]ccc5c4)c3)CC2)=C(c2ccc(Cl)cc2)C1 [Venetoclax] + C1CN(CCC1(C(=O)N[C@@H](CCO)C2=CC=C(C=C2)Cl)N)C3=NC=NC4=C3C=CN4 [Capivasertib] (first compound max 1 µM, 7x7, partner max 3 µM)	0.718

query: Indicate its recorded combination Emax; the compound in question is CC1(C)CCC(CN2CCN(c3ccc(C(=O)NS(=O)(=O)c4ccc(NCC5CCOCC5)c([N+](=O)[O-])c4)c(Oc4cnc5[nH]ccc5c4)c3)CC2)=C(c2ccc(Cl)cc2)C1 [Venetoclax] + C[C@@H](Nc1cc(F)cc(F)c1)c1cc(C(=O)N(C)C)cc2c(=O)cc(N3CCOCC3)oc12 [AZD8186] (first compound max 1 µM, 7x7, partner max 3 µM)
result: 0.422

====

Test system: SNU-387 (Hepatocellular Carcinoma)
protocolDescription: Bliss excess, mean over the matrix (fraction); higher = more synergy
We'd kindly ask you to apply these Bliss excess classes: bin 1 = under -0.05, bin 2 = from -0.05 up to -0.04, bin 3 = -0.04 and over

compound	studyTarget	groupLabel
CN(CCO)CC[C@H](CSc1ccccc1)Nc1ccc(S(=O)(=O)NC(=O)c2ccc(N3CCC([C@@H](O)c4ccccc4-c4ccc(Cl)cc4)CC3)cc2)cc1S(=O)(=O)C(F)(F)F [AZD4320] + Nc1ccn([C@@H]2O[C@H](CO)[C@@H](O)C2(F)F)c(=O)n1 [Gemcitabine] (first compound max 1 µM, 7x7, partner max 0.3 µM)	SNU-387 (Hepatocellular Carcinoma)	bin 1
Cn1cnc2c(F)c(Nc3ccc(Br)cc3Cl)c(C(=O)NOCCO)cc21 [Selumetinib] + C[C@@H]1COCCN1C2=NC(=NC(=C2)C3(CC3)[S@](=N)(=O)C)C4=C5C=CNC5=NC=C4 [AZD6738] (first compound max 10 µM, 7x7, partner max 10 µM)	SNU-387 (Hepatocellular Carcinoma)	bin 3
CN(C)CCCOc1ccc(-c2ccc3ncc4c(c3c2)n(C2CCOCC2)c(=O)n4C)cn1 [AZD0156] + CCN(CCO)CCCOc1ccc2c(Nc3cc(CC(=O)Nc4cccc(F)c4)[nH]n3)ncnc2c1 [AZD2811] (first compound max 1 µM, 7x7, partner max 1 µM)	SNU-387 (Hepatocellular Carcinoma)	bin 1
Cc1c2c(nn1C)CSCc1cc(n(C)n1)CSc1cc(c3ccccc3c1)OCCCc1c(C(=O)O)n(C)c3c-2c(Cl)ccc13 [AZD5991] + Cn1cnc2c(F)c(Nc3ccc(Br)cc3Cl)c(C(=O)NOCCO)cc21 [Selumetinib] (first compound max 1 µM, 7x7, partner max 3 µM)	SNU-387 (Hepatocellular Carcinoma)	bin 3
CC1(C)CCC(CN2CCN(c3ccc(C(=O)NS(=O)(=O)c4ccc(NCC5CCOCC5)c([N+](=O)[O-])c4)c(Oc4cnc5[nH]ccc5c4)c3)CC2)=C(c2ccc(Cl)cc2)C1 [Venetoclax] + CCN(CCO)CCCOc1ccc2c(Nc3cc(CC(=O)Nc4cccc(F)c4)[nH]n3)ncnc2c1 [AZD2811] (first compound max 1 µM, 7x7, partner max 1 µM)	SNU-387 (Hepatocellular Carcinoma)	bin 2

query: // return the class label for CS(=O)(=O)CCNCc1ccc(-c2ccc3ncnc(Nc4ccc(OCc5cccc(F)c5)c(Cl)c4)c3c2)o1 [Lapatinib] + NC1(c2ccc(-c3nc4ccn5c(=O)[nH]nc5c4cc3-c3ccccc3)cc2)CCC1 [MK-2206] (first compound max 10 µM, 7x7, partner max 10 µM)
result: bin 3

query: // return the class label for COc1cccc(OCCCN)c1-c1cc(Nc2cnc(C#N)cn2)n[nH]1 [Prexasertib] + Cc1cc2ncnn2cc1Nc1ncc2c(n1)n(C1CCOCC1)c(=O)n2C [AZD7648] (first compound max 1 µM, 7x7, partner max 10 µM)
result: bin 2

query: // return the class label for CN(C)CCCOc1ccc(-c2ccc3ncc4c(c3c2)n(C2CCOCC2)c(=O)n4C)cn1 [AZD0156] + C=CCn1c(=O)c2cnc(Nc3ccc(N4CCN(C)CC4)cc3)nc2n1-c1cccc(C(C)(C)O)n1 [AZD1775] (first compound max 1 µM, partner max 1 µM)
result: bin 1

query: // return the class label for CC1(C)CCC(CN2CCN(c3ccc(C(=O)NS(=O)(=O)c4ccc(NCC5CCOCC5)c([N+](=O)[O-])c4)c(Oc4cnc5[nH]ccc5c4)c3)CC2)=C(c2ccc(Cl)cc2)C1 [Venetoclax] + Cc1cc2ncnn2cc1Nc1ncc2c(n1)n(C1CCOCC1)c(=O)n2C [AZD7648] (first compound max 1 µM, 7x7, partner max 10 µM)
result: bin 2

====

Test system: ML-2 (Acute Myeloid Leukemia)
protocolDescription: Bliss excess, mean over the matrix (fraction); higher = more synergy
assayReadout: Bliss excess
Answers are plain numbers.

Observe how each entry below is paired with its result.
compound	studyTarget	Bliss excess
Cc1cc2ncnn2cc1Nc1ncc2c(n1)n(C1CCOCC1)c(=O)n2C [AZD7648] + CN(C)CCCOc1ccc(-c2ccc3ncc4c(c3c2)n(C2CCOCC2)c(=O)n4C)cn1 [AZD0156] (first compound max 10 µM, 7x7, partner max 1 µM)	ML-2 (Acute Myeloid Leukemia)	-0.0154
NC1(C(=O)N[C@@H](CCO)c2ccc(Cl)cc2)CCN(c2ncnc3[nH]ccc23)CC1 [Capivasertib] + C[C@@H]1COCCN1C2=NC(=NC(=C2)C3(CC3)[S@](=N)(=O)C)C4=C5C=CNC5=NC=C4 [AZD6738] (first compound max 10 µM, 7x7, partner max 10 µM)	ML-2 (Acute Myeloid Leukemia)	-0.0241

query: Indicate its recorded Bliss excess; the compound in question is C[C@@H](c1ccc2nccn2c1)n1nnc2ncc(-c3cnn(C)c3)nc21 [Savolitinib] + CC1(C)CCC(CN2CCN(c3ccc(C(=O)NS(=O)(=O)c4ccc(NCC5CCOCC5)c([N+](=O)[O-])c4)c(Oc4cnc5[nH]ccc5c4)c3)CC2)=C(c2ccc(Cl)cc2)C1 [Venetoclax] (first compound max 1 µM, 7x7, partner max 1 µM)
result: 0.0096

====

I'd be grateful if you could share measured Bliss excess for these entries.
Tested on: ML-2 (Acute Myeloid Leukemia)
protocolDescription: Bliss excess, mean over the matrix (fraction); higher = more synergy
Give bare numbers.

molecule	recordedNumber
CC(=O)c1c(C)c2cnc(Nc3ccc(N4CCNCC4)cn3)nc2n(C2CCCC2)c1=O [Palbociclib] + Cn1cnc2c(F)c(Nc3ccc(Br)cc3Cl)c(C(=O)NOCCO)cc21 [Selumetinib] (first compound max 10 µM, 7x7, partner max 10 µM)	0.0685
NC1(C(=O)N[C@@H](CCO)c2ccc(Cl)cc2)CCN(c2ncnc3[nH]ccc23)CC1 [Capivasertib] + COc1nnc2ccc(N3CCC(c4ccc(OCCN5CCN(C)C(=O)[C@H]5C)cc4)CC3)nn12 [AZD5153] (first compound max 10 µM, 7x7, partner max 1 µM)	-0.0187
CCc1c2c(nc3ccc(O)cc13)-c1cc3c(c(=O)n1C2)COC(=O)[C@]3(O)CC [SN-38] + CN(C)CCCOc1ccc(-c2ccc3ncc4c(c3c2)n(C2CCOCC2)c(=O)n4C)cn1 [AZD0156] (first compound max 0.3 µM, 7x7, partner max 1 µM)	0.0256

Lab note: next molecule to report on.
query: Indicate its recorded Bliss excess; the molecule in question is CN(C)CCCOc1ccc(-c2ccc3ncc4c(c3c2)n(C2CCOCC2)c(=O)n4C)cn1 [AZD0156] + C[C@@H]1COCCN1C2=NC(=NC(=C2)C3(CC3)[S@](=N)(=O)C)C4=C5C=CNC5=NC=C4 [AZD6738] (first compound max 1 µM, 7x7, partner max 10 µM)
result: -0.0248

====

I'd be grateful if you could share measured Bliss excess for these entries.
System: HCC1937 (Breast Carcinoma)
protocolDescription: Bliss excess, mean over the matrix (fraction); higher = more synergy
Answers are plain numbers.

compound	Bliss excess
Cc1c2c(nn1C)CSCc1cc(n(C)n1)CSc1cc(c3ccccc3c1)OCCCc1c(C(=O)O)n(C)c3c-2c(Cl)ccc13 [AZD5991] + C1CN(CCC1(C(=O)N[C@@H](CCO)C2=CC=C(C=C2)Cl)N)C3=NC=NC4=C3C=CN4 [Capivasertib] (first compound max 1 µM, 7x7, partner max 3 µM)	-0.0108

Lab note: next compound to report on.
query: Indicate its recorded Bliss excess; the compound in question is COc1cccc2c1C(=O)c1c(O)c3c(c(O)c1C2=O)C[C@@](O)(C(=O)CO)C[C@@H]3O[C@H]1C[C@H](N)[C@H](O)[C@H](C)O1 [Doxorubicin] + Cc1cc2ncnn2cc1Nc1ncc2c(n1)n(C1CCOCC1)c(=O)n2C [AZD7648] (first compound max 1 µM, 7x7, partner max 10 µM)
result: 0.005
